Target sequence: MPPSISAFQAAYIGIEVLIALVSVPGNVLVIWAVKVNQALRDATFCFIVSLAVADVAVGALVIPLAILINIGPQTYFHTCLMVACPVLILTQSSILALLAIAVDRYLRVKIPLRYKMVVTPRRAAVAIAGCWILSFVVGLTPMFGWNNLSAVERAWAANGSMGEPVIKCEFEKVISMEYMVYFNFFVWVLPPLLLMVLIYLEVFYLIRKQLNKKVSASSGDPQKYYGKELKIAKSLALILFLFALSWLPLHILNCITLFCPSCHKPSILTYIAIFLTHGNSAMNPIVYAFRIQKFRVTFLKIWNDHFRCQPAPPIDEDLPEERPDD
Threshold 700 nM: Ki strictly smaller gives true (1), otherwise false (0).

>  <COMPOUND>
Cn1cc2c(nc(Cl)n3nc(-c4ccco4)nc23)n1

>  <CATEGORY_LABEL>
false (0)

$$$$
>  <COMPOUND>
Cn1cc2c(nc(NCc3ccc(-c4ccccc4)cc3)n3nc(-c4ccco4)nc23)n1

>  <CATEGORY_LABEL>
false (0)

$$$$
>  <COMPOUND>
Cn1cc2c(nc(NC(c3ccccc3)c3ccccc3)n3nc(-c4ccco4)nc23)n1

>  <CATEGORY_LABEL>
true (1)

$$$$
>  <COMPOUND>
CCOc1nc2nn(C)cc2c2nc(-c3ccco3)nn12

>  <CATEGORY_LABEL>
false (0)

$$$$
>  <COMPOUND>
Cn1cc2c(nc(NCCc3ccccc3)n3nc(-c4ccco4)nc23)n1

>  <CATEGORY_LABEL>
false (0)

$$$$
>  <COMPOUND>
Cn1cc2c(nc(NCCc3c[nH]c4ccccc34)n3nc(-c4ccco4)nc23)n1

>  <CATEGORY_LABEL>
false (0)

$$$$
>  <COMPOUND>
Cn1cc2c(nc(NCCCO)n3nc(-c4ccco4)nc23)n1

>  <CATEGORY_LABEL>
true (1)

$$$$
>  <COMPOUND>
CCCCCC(C)Nc1nc2nn(C)cc2c2nc(-c3ccco3)nn12 (stereo not drawn)

>  <CATEGORY_LABEL>
true (1)

$$$$
>  <COMPOUND>
Cn1cc2c(nc(NCCCCCO)n3nc(-c4ccco4)nc23)n1

>  <CATEGORY_LABEL>
true (1)

$$$$
>  <COMPOUND>
CC[C@@H](C)Nc1nc2nn(C)cc2c2nc(-c3ccco3)nn12

>  <CATEGORY_LABEL>
true (1)

$$$$
>  <COMPOUND>
Cn1cc2c(nc(NC3CCC3)n3nc(-c4ccco4)nc23)n1

>  <CATEGORY_LABEL>
true (1)

$$$$
>  <COMPOUND>
COc1ccc(CCNc2nc3nn(C)cc3c3nc(-c4ccco4)nn23)cc1OC

>  <CATEGORY_LABEL>
false (0)

$$$$
>  <COMPOUND>
COCCNc1nc2nn(C)cc2c2nc(-c3ccco3)nn12

>  <CATEGORY_LABEL>
false (0)

$$$$
>  <COMPOUND>
Cn1cc2c(nc(NC3C4CC5CC(C4)CC3C5)n3nc(-c4ccco4)nc23)n1 (stereo not drawn)

>  <CATEGORY_LABEL>
false (0)

$$$$
>  <COMPOUND>
Cn1cc2c(nc(N3CCOCC3)n3nc(-c4ccco4)nc23)n1

>  <CATEGORY_LABEL>
false (0)

$$$$
>  <COMPOUND>
Cn1cc2c(nc(NC(C)(C)CC(C)(C)C)n3nc(-c4ccco4)nc23)n1

>  <CATEGORY_LABEL>
false (0)

$$$$
>  <COMPOUND>
Cn1cc2c(nc(NC3CC3)n3nc(-c4ccco4)nc23)n1

>  <CATEGORY_LABEL>
true (1)

$$$$
>  <COMPOUND>
Cn1cc2c(n1)[nH]c(=O)n1nc(-c3ccco3)nc21

>  <CATEGORY_LABEL>
false (0)

$$$$
>  <COMPOUND>
CN1CCN(c2nc3nn(C)cc3c3nc(-c4ccco4)nn23)CC1

>  <CATEGORY_LABEL>
false (0)

$$$$
>  <COMPOUND>
Cn1cc2c(nc(NC3CCCCCC3)n3nc(-c4ccco4)nc23)n1

>  <CATEGORY_LABEL>
true (1)

$$$$
>  <COMPOUND>
COc1nc2nn(C)cc2c2nc(-c3ccco3)nn12

>  <CATEGORY_LABEL>
false (0)

$$$$
>  <COMPOUND>
Cn1cc2c(nc(NCCO)n3nc(-c4ccco4)nc23)n1

>  <CATEGORY_LABEL>
true (1)

$$$$
>  <COMPOUND>
CN(c1nc2nn(C)cc2c2nc(-c3ccco3)nn12)C1CCCCC1

>  <CATEGORY_LABEL>
false (0)

$$$$

----------
Reported Ratio Ki values for the following compounds.
Target: Adenosine receptors; A1 & A3 (Homo sapiens) (UniProt P30542+P0DMS8)
Test: Selectivity ratio of Ki for human adenosine A1 receptor expressed in CHO cell membrane to Ki for human adenosine A3 receptor expressed in CHO cell membrane
Assay type: cell-based

>  <COMPOUND>
Cn1cc2c(nc(NCCc3ccccc3)n3nc(-c4ccco4)nc23)n1

>  <Ratio Ki>
13.9

$$$$
>  <COMPOUND>
CCCCCN(CCCCC)c1nc2nn(C)cc2c2nc(-c3ccco3)nn12

>  <Ratio Ki>
4.04

$$$$
>  <COMPOUND>
CC(C)Nc1nc2nn(C)cc2c2nc(-c3ccco3)nn12

>  <Ratio Ki>
9.76

$$$$
>  <COMPOUND>
CN1CCN(c2nc3nn(C)cc3c3nc(-c4ccco4)nn23)CC1

>  <Ratio Ki>
11.4

$$$$
>  <COMPOUND>
Cn1cc2c(nc(NC3CCCCC3)n3nc(-c4ccco4)nc23)n1

>  <Ratio Ki>
19.4

$$$$
>  <COMPOUND>
CC(CCc1ccccc1)Nc1nc2nn(C)cc2c2nc(-c3ccco3)nn12 (stereo unspecified)

>  <Ratio Ki>
3.52

$$$$
>  <COMPOUND>
CCCCC(CC)CNc1nc2nn(C)cc2c2nc(-c3ccco3)nn12 (stereo unspecified)

>  <Ratio Ki>
158

$$$$
>  <COMPOUND>
C[C@@H](Nc1nc2nn(C)cc2c2nc(-c3ccco3)nn12)c1ccccc1

>  <Ratio Ki>
255

$$$$
>  <COMPOUND>
CC(O)CNc1nc2nn(C)cc2c2nc(-c3ccco3)nn12 (stereo unspecified)

>  <Ratio Ki>
1.05

$$$$
>  <COMPOUND>
Cn1cc2c(nc(NC3CC3)n3nc(-c4ccco4)nc23)n1

>  <Ratio Ki>
3

$$$$
>  <COMPOUND>
Cn1cc2c(nc(NC34CC5CC(CC(C5)C3)C4)n3nc(-c4ccco4)nc23)n1

>  <Ratio Ki>
87.6

$$$$

----------
Target: Adenosine receptor A3 (Homo sapiens)
Sequence (P0DMS8 whole entry): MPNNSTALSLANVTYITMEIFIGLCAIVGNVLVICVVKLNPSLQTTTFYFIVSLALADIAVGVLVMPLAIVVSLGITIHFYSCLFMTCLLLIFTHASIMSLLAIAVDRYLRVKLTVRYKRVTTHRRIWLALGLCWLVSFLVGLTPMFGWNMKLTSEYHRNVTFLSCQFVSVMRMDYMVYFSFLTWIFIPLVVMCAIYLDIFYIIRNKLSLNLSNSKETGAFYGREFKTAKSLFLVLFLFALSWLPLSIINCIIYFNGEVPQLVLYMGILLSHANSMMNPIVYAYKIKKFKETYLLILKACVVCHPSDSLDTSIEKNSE
Entries whose Ki is below 8 nM take True; entries at or above 8 nM take False.

>  <COMPOUND>
Cn1cc2c(nc(NCc3ccc(Cl)cc3)n3nc(-c4ccco4)nc23)n1

>  <CATEGORY_LABEL>
True

$$$$
>  <COMPOUND>
CCC(C)Nc1nc2nn(C)cc2c2nc(-c3ccco3)nn12 (racemic)

>  <CATEGORY_LABEL>
True

$$$$
>  <COMPOUND>
Cn1cc2c(nc(NCc3ccc(-c4ccccc4)cc3)n3nc(-c4ccco4)nc23)n1

>  <CATEGORY_LABEL>
False

$$$$
>  <COMPOUND>
COc1ccc(CCNc2nc3nn(C)cc3c3nc(-c4ccco4)nn23)cc1OC

>  <CATEGORY_LABEL>
False

$$$$
>  <COMPOUND>
Cn1cc2c(nc(NC3CCCC3)n3nc(-c4ccco4)nc23)n1

>  <CATEGORY_LABEL>
True

$$$$

----------
Molecular target: Adenosine receptor A3 (Homo sapiens)
pKi: −log10 of the molar value.
Assign class by pKi: not lower than 7 means label 1; lower than 7 means label 0.

>  <MOLECULE>
Cn1cc2c(nc(NC3CCCCC3)n3nc(-c4ccco4)nc23)n1

>  <CATEGORY_LABEL>
label 1

$$$$
>  <MOLECULE>
CC(CCc1ccccc1)Nc1nc2nn(C)cc2c2nc(-c3ccco3)nn12 (stereo not drawn)

>  <CATEGORY_LABEL>
label 1

$$$$
>  <MOLECULE>
Cn1cc2c(nc(N3CCCCC3)n3nc(-c4ccco4)nc23)n1

>  <CATEGORY_LABEL>
label 1

$$$$
>  <MOLECULE>
Cn1cc2c(nc(NCc3ccc(C(F)(F)F)cc3)n3nc(-c4ccco4)nc23)n1

>  <CATEGORY_LABEL>
label 1

$$$$
>  <MOLECULE>
CCCCCNc1nc2nn(C)cc2c2nc(-c3ccco3)nn12

>  <CATEGORY_LABEL>
label 1

$$$$
>  <MOLECULE>
Cn1cc2c(nc(NCCCO)n3nc(-c4ccco4)nc23)n1

>  <CATEGORY_LABEL>
label 0

$$$$
